- Tested on: cervical cancer cells Hela
- Assay Procedure: CCK8 cell viability experiment, Hela
- Format: cell-based
- Condition Parameters: LARP7 overexpression
pIC50: −log10 of the molar value.
Endpoint Name: pIC50

In [3]: df
Out[3]:
                                   compound  endpoint_name  numeric_value
0  [NH2][Pt]([NH2])([Cl])[Cl] [CDDP, cisplatin]          pIC50           4.72

====

- Test system: cervical cancer cells Hela
- Assay Procedure: CCK8 cell viability experiment, Hela
- Format: cell-based
- Condition Parameters: control group of LARP7-knockdown
pIC50: −log10 of the molar value.
Endpoint Name: pIC50

In [3]: df
Out[3]:
                                   compound  numeric_value
0  [NH2][Pt]([NH2])([Cl])[Cl] [CDDP, cisplatin]           4.50

====

- System: cervical cancer cells Hela
- Assay Procedure: CCK8 cell viability experiment, Hela
- Type: cell-based
- Condition Parameters: control group of LARP7 overexpression
pIC50: −log10 of the molar value.
Endpoint Name: pIC50

>>> df
                                   compound  numeric_value
0  [NH2][Pt]([NH2])([Cl])[Cl] [CDDP, cisplatin]           4.40
